Target: T1, human IGFBP7 recombinant protein (UniProt Q16270 27-282, biotinylated with EZ-LINK NHS-PEG4 biotin in the BLI assays (sites not given))
T1 chain: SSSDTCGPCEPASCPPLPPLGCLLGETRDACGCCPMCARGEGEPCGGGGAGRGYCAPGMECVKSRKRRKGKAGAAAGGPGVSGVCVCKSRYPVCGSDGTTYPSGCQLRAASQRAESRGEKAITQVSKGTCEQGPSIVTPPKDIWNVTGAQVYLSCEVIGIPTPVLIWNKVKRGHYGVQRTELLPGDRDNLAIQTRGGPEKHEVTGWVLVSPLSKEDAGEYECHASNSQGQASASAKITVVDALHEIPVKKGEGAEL
Experiment: BLI
pKd: −log10 of the molar value.
pKd overview

Binder: A1-mIgG1 nanobody Fc-fusion (Fc fusion, VHH fused with mIgG1 Fc fragment, expressed in Expi293 cells; also called monospecific A1-mIgG1; not shown: mouse IgG1 Fc fragment (mIgG1 Fc)) VQLQESGGGLVQAGGSLRLSCAASGSLFAIDKWGWYRQVAGNERELVAWRYSPVSINYGDSVKGRFTVSGDSSRKRVYLQMNSLKPDDTAVYRCAAVISGAWYWGQGTQVTVSS
pKd: 8.42
--
Binder: A1-mIgG2a nanobody Fc-fusion (Fc fusion, VHH fused with mIgG2a Fc fragment, expressed in Expi293 cells, Protein G purified; also called monoclonal A1-mIgG2a; monospecific A1-mIgG2a; not shown: mouse IgG2a Fc fragment (mIgG2a Fc)) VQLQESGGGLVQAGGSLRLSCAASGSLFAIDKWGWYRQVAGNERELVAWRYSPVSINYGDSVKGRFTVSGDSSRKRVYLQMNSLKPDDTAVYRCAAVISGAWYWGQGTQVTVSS
pKd: 8.57
--
Binder: D4-mIgG2a nanobody Fc-fusion (Fc fusion, VHH fused with mIgG2a Fc fragment, expressed in Expi293 cells; also called monospecific D4-mIgG2a; not shown: mouse IgG2a Fc fragment (mIgG2a Fc)) VQLQESGGGLVQTGGSLRLSCAASGRSFTFSSYAMGWFRHAPGKEREFLTAITWSGDYTYYTDSVKGRSTISRDNAKNTVYLQLNNLKPEDTAVYYCAAKFSQVSAFFATVSEYEYWGQGTQVTVSS
pKd: 8.91
